- ASSAY_SYSTEM: Neutrophil elastase (Homo sapiens, UniProt P08246)
- Sequence (P08246 whole entry): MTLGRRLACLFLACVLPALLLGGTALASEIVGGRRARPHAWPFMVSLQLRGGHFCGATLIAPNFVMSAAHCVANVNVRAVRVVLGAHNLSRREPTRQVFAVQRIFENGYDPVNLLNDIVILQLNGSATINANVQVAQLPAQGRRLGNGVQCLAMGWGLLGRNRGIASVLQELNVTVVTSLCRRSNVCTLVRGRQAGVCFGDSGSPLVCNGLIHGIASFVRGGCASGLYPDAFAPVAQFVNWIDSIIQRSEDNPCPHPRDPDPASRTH
- EXPERIMENT_NOTES: Inhibition of human neutrophil elastase
pIC50: −log10 of the molar value.
VALUE_KIND: pIC50

Please review the entries below; each comes with its answer.
{"INPUT_SMILES": "COc1cc(C(=O)N2C[C@@H](n3cc(C4CC4)nn3)C[C@H]2C(=O)NCC(c2ccccc2)c2ccccc2)ccc1CN", "ASSAY_SYSTEM": "Neutrophil elastase (Homo sapiens, UniProt P08246)", "pIC50": 4.26}
{"INPUT_SMILES": "CNC(=O)[C@@H]1C[C@H](N2CCc3c(cccc3OCCOC)C2)CN1C(=O)c1ccc(CN)c(OC)c1", "ASSAY_SYSTEM": "Neutrophil elastase (Homo sapiens, UniProt P08246)", "pIC50": "< 4.00"}
{"INPUT_SMILES": "NCc1ccc(C(=O)N2C[C@@H](n3cc(C4CC4)nn3)C[C@H]2C(=O)NCC(c2ccccc2)c2ccccc2)cc1", "ASSAY_SYSTEM": "Neutrophil elastase (Homo sapiens, UniProt P08246)", "pIC50": "< 4.00"}

# evaluate next
### Prompt # input molecule: COc1cc(C(=O)N2C[C@@H](n3cc(C4CC4)nn3)C[C@H]2C(=O)N[C@H]2CCCC[C@@H]2c2ccccc2)ccc1CN ; wanted: its pIC50
### Response < 4.00

----------
- EXPERIMENT_NOTES: Clearance in Sprague-Dawley rat at 1 mg/kg, iv
- Format: ADME, organism-based
- RUN_PARAMETERS: in vivo
For each entry below, report its clearance value.
One number for each entry, in mL/min/kg.

{"INPUT_SMILES": "CNC(=O)[C@@H]1C[C@H](N2CCc3c(cccc3OCCOC)C2)CN1C(=O)c1ccc(CN)c(OC)c1", "VALUE_KIND": "clearance", "UNITS_SYMBOL": "mL/min/kg", "MEASURED": 9}

### Prompt # input compound: COc1cc(C(=O)N2C[C@@H](n3cc(C4CC4)nn3)C[C@H]2C(=O)NCC(c2ccccc2)c2ccccc2)ccc1CN ; wanted: its clearance
### Response 33

----------
# Serine protease 1 (Homo sapiens, UniProt P07477): pIC50 values follow
# Sequence (P07477 whole entry): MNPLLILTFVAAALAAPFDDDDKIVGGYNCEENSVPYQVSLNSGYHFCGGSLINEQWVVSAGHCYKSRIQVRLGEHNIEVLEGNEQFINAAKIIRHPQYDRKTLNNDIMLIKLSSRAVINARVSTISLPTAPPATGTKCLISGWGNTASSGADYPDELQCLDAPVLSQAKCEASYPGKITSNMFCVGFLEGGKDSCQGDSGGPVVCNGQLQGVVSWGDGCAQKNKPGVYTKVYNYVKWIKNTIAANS
One number for each entry, as −log10 of the molar value.

Please review the entries below; each comes with its answer.
{"INPUT_SMILES": "COc1cc(C(=O)N2C[C@@H](n3cc(C4CC4)nn3)C[C@H]2C(=O)N2CC[C@@H](c3ccccc3)C2)ccc1CN", "ASSAY_SYSTEM": "Serine protease 1 (Homo sapiens, UniProt P07477)", "MEASURED": 6.48}
{"INPUT_SMILES": "CNC(=O)[C@@H]1C[C@H](n2cc(C3CC3)nn2)CN1C(=O)c1ccc(CN)c(OC)c1", "ASSAY_SYSTEM": "Serine protease 1 (Homo sapiens, UniProt P07477)", "MEASURED": 5.68}
{"INPUT_SMILES": "CNC(=O)[C@@H]1C[C@H](N2CCc3c(ncnc3OCCC3CC3)C2)CN1C(=O)c1ccc(CN)c(OC)c1", "ASSAY_SYSTEM": "Serine protease 1 (Homo sapiens, UniProt P07477)", "MEASURED": 8.22}
{"INPUT_SMILES": "COc1cc(C(=O)N2C[C@@H](n3cc(C4CC4)nn3)C[C@H]2C(=O)N[C@H]2C[C@@H]2c2ccccc2)ccc1CN", "ASSAY_SYSTEM": "Serine protease 1 (Homo sapiens, UniProt P07477)", "MEASURED": 6.02}

For each entry beneath this line, provide reported pIC50.
1. CNC(=O)[C@@H]1C[C@H](N2CCc3c(cccc3OCCC3CC3)C2)CN1C(=O)c1ccc(CN)c(OC)c1
2. COc1cc(C(=O)N2C[C@@H](n3cc(C4CC4)nn3)C[C@H]2C(=O)N[C@H]2CCCC[C@@H]2c2ccccc2)ccc1CN

### Response
1. 8.70
2. 7.72
